% of enfortumab (Average Max MFI) overview
Biological target: T1, human nectin-4 on cells (human, UniProt Q96NY8 32-510)
T1 construct: also called Nectin-4 receptor
T1 sequence: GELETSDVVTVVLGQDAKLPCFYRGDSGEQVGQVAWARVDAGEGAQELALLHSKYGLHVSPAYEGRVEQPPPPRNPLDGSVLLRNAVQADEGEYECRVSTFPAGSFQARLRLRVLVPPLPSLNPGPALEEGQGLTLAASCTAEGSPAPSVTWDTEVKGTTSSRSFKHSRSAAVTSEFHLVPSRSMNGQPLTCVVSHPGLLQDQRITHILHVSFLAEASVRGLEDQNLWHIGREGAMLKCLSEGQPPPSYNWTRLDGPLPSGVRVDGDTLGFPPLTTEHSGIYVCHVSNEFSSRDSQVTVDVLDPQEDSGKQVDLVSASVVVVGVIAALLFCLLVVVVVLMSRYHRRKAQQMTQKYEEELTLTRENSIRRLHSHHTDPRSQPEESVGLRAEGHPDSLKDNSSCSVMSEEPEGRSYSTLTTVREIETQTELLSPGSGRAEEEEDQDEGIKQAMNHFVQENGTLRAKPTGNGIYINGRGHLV
Test: flow cytometry, NCI-H1781 cells (low endogenous nectin-4)
Form entry: value (%) — number only.

Please review the entries below; each comes with its answer.
Give recorded % of enfortumab (Average Max MFI). Ab4 (antibody, human IgG1, kappa, L234A L235A, V domains shown, Unconjugated antibody; also called Antibody 4) VH: QVQLQESGPGLVKPSETLSLTCTVSGGSISGYYWSWIRQPPGKGLEWIGYIYYSGSTNYNPSLKSRVTISVDTSKNQFSLKLSSVTAADTAVYYCARLGIFFDAFDIWGQGTLVTVSS VL: DIQLTQSPSFLSASVGDRVTITCRASQGISSYLAWYQQKPGKAPKLLIYAASTLQSGVPSRFSGSGSGTEFTLTISSLQPEDFATYYCQQFNSYPWTFGQGTKVEIKR 95.8

Return reported % of enfortumab (Average Max MFI). Input binder: Ab1a (antibody, human IgG1, kappa, L234A L235A, V domains shown, Unconjugated antibody; also called nectin-4 antibody Ab1a) VH: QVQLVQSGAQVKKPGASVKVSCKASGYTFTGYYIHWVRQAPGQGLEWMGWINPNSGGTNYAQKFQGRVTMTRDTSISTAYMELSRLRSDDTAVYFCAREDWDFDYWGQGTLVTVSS VL: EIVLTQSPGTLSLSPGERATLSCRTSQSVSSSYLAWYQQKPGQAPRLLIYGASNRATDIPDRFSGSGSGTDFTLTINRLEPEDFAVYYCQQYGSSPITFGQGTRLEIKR 84.5

Return % of enfortumab (Average Max MFI) (reported value) for this binder: enfortumab (antibody, V domains shown) VH: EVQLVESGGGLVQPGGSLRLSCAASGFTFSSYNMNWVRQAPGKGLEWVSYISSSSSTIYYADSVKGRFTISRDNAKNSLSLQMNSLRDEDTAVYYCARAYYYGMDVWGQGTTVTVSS VL: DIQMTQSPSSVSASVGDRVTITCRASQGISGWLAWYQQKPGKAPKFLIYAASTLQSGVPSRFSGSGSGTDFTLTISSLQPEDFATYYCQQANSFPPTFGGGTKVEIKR 100

---
Give the measured % of enfortumab (Average Max MFI) for Ab3 (antibody, human IgG1, kappa, L234A L235A, V domains shown, Unconjugated antibody; also called Antibody 3; nectin-4 antibody Ab3) VH: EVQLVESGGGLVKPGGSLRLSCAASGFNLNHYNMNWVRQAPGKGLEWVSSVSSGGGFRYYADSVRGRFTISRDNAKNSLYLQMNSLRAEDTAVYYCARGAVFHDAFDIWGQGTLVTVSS VL: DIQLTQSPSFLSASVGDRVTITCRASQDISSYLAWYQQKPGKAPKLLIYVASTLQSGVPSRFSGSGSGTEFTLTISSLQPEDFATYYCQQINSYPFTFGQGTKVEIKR 105

Tell us which % of enfortumab (Average Max MFI) value is on record for Ab8 (antibody, human IgG1, lambda, L234A L235A, V domains shown, Unconjugated antibody; also called Antibody 8; nectin-4 antibody Ab8) VH: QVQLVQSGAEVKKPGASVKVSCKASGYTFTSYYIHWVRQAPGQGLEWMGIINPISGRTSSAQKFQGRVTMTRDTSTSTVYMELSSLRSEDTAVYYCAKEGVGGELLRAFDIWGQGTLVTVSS VL: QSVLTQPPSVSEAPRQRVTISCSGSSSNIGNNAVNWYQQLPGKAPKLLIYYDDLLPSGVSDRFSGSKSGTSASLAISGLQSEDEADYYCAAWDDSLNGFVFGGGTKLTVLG 99.6

// fetch % of enfortumab (Average Max MFI) given entry Ab7 (antibody, human IgG1, lambda, L234A L235A, V domains shown, Unconjugated antibody; also called Antibody 7; nectin-4 antibody Ab7) VH: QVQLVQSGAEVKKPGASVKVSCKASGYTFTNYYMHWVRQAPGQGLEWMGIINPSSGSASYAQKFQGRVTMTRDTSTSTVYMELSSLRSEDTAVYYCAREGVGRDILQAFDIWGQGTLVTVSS VL: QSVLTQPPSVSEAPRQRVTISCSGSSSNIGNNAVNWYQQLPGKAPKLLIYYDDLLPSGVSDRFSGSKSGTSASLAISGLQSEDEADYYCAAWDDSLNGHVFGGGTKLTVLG 96
